biological target: recombinant human LTA4 hydrolase (Homo sapiens, UniProt P09960); construct: made in house; host or cells: Spodoptera frugiperda Sf-9 cells, baculovirus (AcNPV) expression vector; assay: Recombinant Human LTA4 Hydrolase Assay for LTA4 Hydrolase Inhibitor Activity (LTB4 by enzyme-linked immunoassay); format: biochemical
Sequence (P09960 whole entry): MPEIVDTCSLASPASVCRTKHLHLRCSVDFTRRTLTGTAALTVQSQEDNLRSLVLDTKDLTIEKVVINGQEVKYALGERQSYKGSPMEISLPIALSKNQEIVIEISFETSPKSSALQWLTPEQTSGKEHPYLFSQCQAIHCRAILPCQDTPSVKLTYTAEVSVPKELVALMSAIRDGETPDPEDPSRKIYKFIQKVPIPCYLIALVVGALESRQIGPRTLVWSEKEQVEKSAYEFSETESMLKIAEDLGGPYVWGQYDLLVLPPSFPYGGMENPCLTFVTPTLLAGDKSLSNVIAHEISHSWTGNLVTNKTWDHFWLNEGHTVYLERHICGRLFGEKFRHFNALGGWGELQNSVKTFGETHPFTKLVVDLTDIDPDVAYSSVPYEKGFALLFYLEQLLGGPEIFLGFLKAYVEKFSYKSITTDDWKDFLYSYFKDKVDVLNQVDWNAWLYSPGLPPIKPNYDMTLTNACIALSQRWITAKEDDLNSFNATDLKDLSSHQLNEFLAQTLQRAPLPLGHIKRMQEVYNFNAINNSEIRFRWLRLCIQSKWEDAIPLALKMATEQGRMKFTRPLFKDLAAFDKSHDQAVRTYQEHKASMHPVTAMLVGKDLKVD

- Smiles Code: "O=C(O)c1ccc(-c2ccc(OCCN3CCCC3)cc2)cc1"
  Units Symbol: "%"
  inhibition at 25 µM: 40
- Smiles Code: "O=C(O)c1ccc(Oc2ccc(OCCN3CCCC3)cc2)cc1"
  Units Symbol: "%"
  inhibition at 25 µM: 52
- Smiles Code: "Clc1cccc(Cl)c1COc1ccc(OCCN2CCCC2)cc1"
  Units Symbol: "%"
  inhibition at 25 µM: 49
- Smiles Code: "Cc1ccccc1COc1ccc(OCCN2CCCC2)cc1"
  Units Symbol: "%"
  inhibition at 25 µM: 4

Origin of measurements: patent US5585492A
